Values compiled from patent US20220112292A1.

# target.or.system: T1, CLL-1 on U937 cells (human, UniProt Q5QGZ9 1-265)
# T1 construct: whole, on cells; also called CLEC12A; Clec12A
# T1 sequence: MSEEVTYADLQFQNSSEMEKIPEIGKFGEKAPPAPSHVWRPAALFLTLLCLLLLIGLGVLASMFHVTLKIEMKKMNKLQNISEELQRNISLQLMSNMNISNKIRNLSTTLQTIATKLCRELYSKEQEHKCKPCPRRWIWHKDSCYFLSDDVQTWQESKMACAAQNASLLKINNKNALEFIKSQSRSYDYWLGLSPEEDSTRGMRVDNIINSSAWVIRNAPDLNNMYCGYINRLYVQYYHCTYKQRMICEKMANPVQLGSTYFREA
# method.summary: flow cytometry on U937 cells, VHH in 3-fold dilutions, detected with a-His-PE; percent of cells positive
# Description: U937 cell binding by VHH clones was assessed using varying doses to determine EC50s. […]
assay.readout: % binding at 111.1 ng/ml
Give your result as the value with the unit written after it.

Guide cases for % binding at 111.1 ng/ml, answers given:
Record summary for VHH clone 1G6 (VHH, includes myc and His tags; also called 2G11; 2H2) VHH: QVQLQQSGGGLVQAGGSLRLSCAASGSIFAINEINLMGWYRQAPGKQRELVAACASDGNTYYADSVKGRFTISRDNAEKTVYLQMNNLKPDDTAVYYCDANSRGNYYSGQGTQVTVSS : reported % binding at 111.1 ng/ml = 87.7%

The binder listed as VHH clone 1H1 (VHH, includes myc and His tags; also called 2F4) VHH: QVQLQESGGGLVQPGGSLRLSCAASGFTFNSYAMTWVRQAPGKGLEWVSDINSGGGSTNYADSVKGRFTISRDNAKNTLYLQMNSLKPEDTAVYYCATELRGSDYYRGPIREYAYWGQGTLVTVSS shows % binding at 111.1 ng/ml equal to 2.1%

Lookup result for VHH clone 2F5 (VHH, Includes myc and His tags) VHH: QVQLQQSGGGLAQTGGSLILSCAASGSIFAINEINLMGWYRQAPGKQRELVAACASDGNTYYADSVKGRFTISRDNAEKTVYLQMNNLKPDDTAVYYCDANSRGNYYSGQGTQVTVSS ; measured % binding at 111.1 ng/ml: 86%

Further cases:
GET /value?item= VHH clone 2H3 (VHH, Includes myc and His tags; also called 2H3 VHH-Myc-His; VHH 2H3) VHH: QVQLQESGGGLVQAGGSLRLSCVASGSIRSINVMGWYRQAPGKQRELVAACASDGNTYYADSVKGRFTISRDNAEKTVYLQMNNLKPDDTAVYYCDANSRGNYYSGQGTQVTVSS &field=% binding at 111.1 ng/ml returns 89.4%
